Target: Recombinant Src enzyme (Homo sapiens)
Sequence (P12931 whole entry): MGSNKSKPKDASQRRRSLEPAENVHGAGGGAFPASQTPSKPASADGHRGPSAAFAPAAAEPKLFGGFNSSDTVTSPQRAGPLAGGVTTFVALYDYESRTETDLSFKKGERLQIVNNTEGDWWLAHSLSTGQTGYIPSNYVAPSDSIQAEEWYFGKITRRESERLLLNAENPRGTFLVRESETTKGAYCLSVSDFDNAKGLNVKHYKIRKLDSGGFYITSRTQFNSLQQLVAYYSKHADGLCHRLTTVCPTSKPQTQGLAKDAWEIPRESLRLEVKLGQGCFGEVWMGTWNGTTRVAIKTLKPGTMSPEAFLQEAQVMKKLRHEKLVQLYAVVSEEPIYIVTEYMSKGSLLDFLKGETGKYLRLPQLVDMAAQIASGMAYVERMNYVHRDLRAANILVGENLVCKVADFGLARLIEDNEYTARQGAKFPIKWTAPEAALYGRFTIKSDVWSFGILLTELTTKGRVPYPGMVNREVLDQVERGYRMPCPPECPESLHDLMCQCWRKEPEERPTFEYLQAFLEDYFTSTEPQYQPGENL
Experiment: Src HTRF assay
Endpoint Name: IC50

Here's what some known entries look like.
{"Compound": "O=C1CCc2cc(Nc3cc4c(ccn4S(=O)(=O)c4cccc(OC(F)(F)F)c4)cn3)ccc2N1 [Example 56]", "IC50": "> 1000 nM"}
{"Compound": "CN(c1ccccc1Cn1ccc2cnc(Nc3ccc(N4CCNCC4)cc3)nc21)S(C)(=O)=O [Example 214]", "IC50": "< 20 nM"}
{"Compound": "O=S(=O)(c1cccc2cccnc12)n1ccc2cnc(Nc3ccc(N4CCNCC4)cc3CO)cc21 [Example 361]", "IC50": "> 1000 nM"}
{"Compound": "CN(c1ccccc1Cn1ccc2cnc(Nc3ccc(-n4ccccc4=O)cc3)nc21)S(C)(=O)=O [Example 576]", "IC50": "> 1000 nM"}
{"Compound": "O=C1CCc2cc(Nc3ncc4cnn(Cc5ccccc5OC(F)F)c4n3)ccc2N1 [Example 21]", "IC50": "< 20 nM"}

Shift focus to the following entry.
Query for Recombinant Src enzyme (Homo sapiens): what IC50 does the record show for O=S(=O)(c1ccccc1)n1ccc2cnc(Nc3ccc(N4CCNCC4)cc3)nc21 [Example 224] ?
< 20 nM

Recorded values, source patent US20160222014A1.
